Hey, just so you know, these numbers are from patent US20230265151A1.

- ASSAYED TARGET: T1, human GIP receptor (human, UniProt P48546 22-466)
- T1 construct: whole, on cells; also called hGIPR; human glucose-dependent insulinotropic polypeptide receptor
- T1 sequence (looked up): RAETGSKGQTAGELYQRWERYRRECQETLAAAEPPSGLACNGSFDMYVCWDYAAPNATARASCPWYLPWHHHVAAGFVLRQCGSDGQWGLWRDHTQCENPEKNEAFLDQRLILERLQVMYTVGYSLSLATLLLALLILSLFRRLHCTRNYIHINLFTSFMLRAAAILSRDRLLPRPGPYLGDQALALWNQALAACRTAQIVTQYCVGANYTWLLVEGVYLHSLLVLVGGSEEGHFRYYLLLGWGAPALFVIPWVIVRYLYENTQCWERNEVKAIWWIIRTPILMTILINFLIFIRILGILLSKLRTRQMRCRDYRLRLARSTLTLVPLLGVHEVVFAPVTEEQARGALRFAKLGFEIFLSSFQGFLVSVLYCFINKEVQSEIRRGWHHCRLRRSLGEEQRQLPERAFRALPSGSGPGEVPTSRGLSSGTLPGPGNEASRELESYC
- TEST DESCRIPTION: SPA competition vs [125I]-GIP, hGIPR membranes
Label key: Met means Ki under 0.04 nM; Not met means Ki of 0.04 nM or more.

BINDER | CAT
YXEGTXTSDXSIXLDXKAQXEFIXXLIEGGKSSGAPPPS (Aib2, αMeF(2F)6, 4Pal10, αMeL13, Orn16, K17(Z1), Aib20, D-Glu24, αMeY25, K31(Z1), C-term NH2; Z1=AEEA-(γ-Glu)-(10-(4-carboxyphenoxy)decanoyl)) | Not met
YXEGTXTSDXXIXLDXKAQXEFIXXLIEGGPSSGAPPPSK (Aib2, αMeF(2F)6, 4Pal10, Aib11, αMeL13, Orn16, K17(Z1), Aib20, D-Glu24, αMeY25, K40(Z1), C-term NH2; Z1=AEEA-(γ-Glu)-(10-(4-carboxyphenoxy)decanoyl)) | Not met
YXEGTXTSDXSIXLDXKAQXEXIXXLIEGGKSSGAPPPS (Aib2, αMeF(2F)6, 4Pal10, αMeL13, Orn16, K17(Z1), Aib20, 3ClPhe22, D-Glu24, αMeY25, K31(Z1), C-term NH2; Z1=AEEA2-(γ-Glu)-CO-(CH2)12-CO2H) | Not met
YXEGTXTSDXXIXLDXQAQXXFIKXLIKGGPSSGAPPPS (Aib2, αMeF(2F)6, 4Pal10, Aib11, αMeL13, Orn16, Aib20, Orn21, K24(Z1), αMeY25, K28(Z1), C-term NH2; Z1=PEG3-(γ-Glu)-(10-(4-carboxyphenoxy)decanoyl)) | Met
YXEGTXTSDXSIXLDXKAQXEFIKXLIEGGPSSGAPPPS (Aib2, αMeF(2F)6, 4Pal10, αMeL13, Orn16, K17(Z1), Aib20, K24(Z1), αMeY25, C-term NH2; Z1=AEEA2-(γ-Glu)-CO-(CH2)12-CO2H) | Not met
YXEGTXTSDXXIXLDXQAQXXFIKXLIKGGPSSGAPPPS (Aib2, αMeF(2F)6, 4Pal10, Aib11, αMeL13, Orn16, Aib20, Orn21, K24(Z1), αMeY25, K28(Z1), C-term NH2; Z1=AEEA3-(γ-Glu)-(10-(4-carboxyphenoxy)decanoyl)) | Met
YXEGTXTSDXSIXLDXKAQXEFIXXLIEGKPSSGAPPPS (Aib2, αMeF(2F)6, 4Pal10, αMeL13, Orn16, K17(Z1), Aib20, D-Glu24, αMeY25, K30(Z1), C-term NH2; Z1=AEEA2-(γ-Glu)-CO-(CH2)14-CH3) | Met
